- system.name: human alpha1 nicotinic acetylcholine (nACh) receptor (Homo sapiens, UniProt P02708+Q07001)
- Sequence (P02708 21-457): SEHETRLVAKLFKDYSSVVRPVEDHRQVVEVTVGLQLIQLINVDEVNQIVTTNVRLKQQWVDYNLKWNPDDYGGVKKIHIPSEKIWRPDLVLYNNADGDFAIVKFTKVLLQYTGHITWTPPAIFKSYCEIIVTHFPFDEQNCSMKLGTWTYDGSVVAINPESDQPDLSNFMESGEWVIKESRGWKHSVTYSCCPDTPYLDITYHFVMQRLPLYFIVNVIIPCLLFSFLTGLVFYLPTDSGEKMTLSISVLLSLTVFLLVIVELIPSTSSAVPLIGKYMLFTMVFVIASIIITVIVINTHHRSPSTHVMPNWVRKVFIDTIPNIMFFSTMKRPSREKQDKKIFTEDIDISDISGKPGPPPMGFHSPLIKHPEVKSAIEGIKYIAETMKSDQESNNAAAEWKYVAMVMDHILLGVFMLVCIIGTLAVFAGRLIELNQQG
- Sequence (P11230 24-501 partner): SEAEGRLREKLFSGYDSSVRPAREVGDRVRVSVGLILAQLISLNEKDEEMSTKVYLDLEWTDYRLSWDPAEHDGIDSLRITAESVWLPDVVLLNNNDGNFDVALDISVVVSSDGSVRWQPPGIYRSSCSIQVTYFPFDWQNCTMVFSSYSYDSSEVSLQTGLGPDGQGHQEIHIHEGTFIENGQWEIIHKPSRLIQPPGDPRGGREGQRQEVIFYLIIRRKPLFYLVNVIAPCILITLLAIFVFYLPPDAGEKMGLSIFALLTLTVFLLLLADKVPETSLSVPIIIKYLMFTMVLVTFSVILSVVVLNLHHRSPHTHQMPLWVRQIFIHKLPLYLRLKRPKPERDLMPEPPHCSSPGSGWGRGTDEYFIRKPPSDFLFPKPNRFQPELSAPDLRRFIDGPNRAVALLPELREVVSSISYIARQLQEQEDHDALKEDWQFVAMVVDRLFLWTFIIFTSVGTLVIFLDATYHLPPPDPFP
- Sequence (Q07001 22-517): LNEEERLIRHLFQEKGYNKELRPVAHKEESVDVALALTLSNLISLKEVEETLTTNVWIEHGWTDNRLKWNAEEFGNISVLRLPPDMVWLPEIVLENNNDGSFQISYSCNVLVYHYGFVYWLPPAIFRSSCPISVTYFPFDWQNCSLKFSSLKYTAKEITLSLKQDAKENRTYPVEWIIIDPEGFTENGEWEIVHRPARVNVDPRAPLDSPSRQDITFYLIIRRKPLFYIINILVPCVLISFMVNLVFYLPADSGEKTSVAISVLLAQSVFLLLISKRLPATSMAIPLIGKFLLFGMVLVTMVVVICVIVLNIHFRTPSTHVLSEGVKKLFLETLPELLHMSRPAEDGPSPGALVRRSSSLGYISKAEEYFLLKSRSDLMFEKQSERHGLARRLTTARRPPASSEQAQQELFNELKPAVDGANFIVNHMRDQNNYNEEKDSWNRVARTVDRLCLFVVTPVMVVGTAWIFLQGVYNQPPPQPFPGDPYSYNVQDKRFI
- measurement.notes: Nicotinic acetylcholine receptor antagonism assay (IONFlux automated patch clamp)
- settings: nAChR antagonism, stimulated with ACh; average if more than one run
pIC50: −log10 of the molar value.
Listed next: entries and their corresponding pIC50.

Completed entries (count: 2):
## Task State the recorded pIC50 for this entry: CC(=O)N[C@@H]1C[C@H](NC(C)(C)C)CC[C@@H]1N1CC[C@H](Nc2nc(NC3CCN(C(=O)[C@H]4CC[C@H](NC(=O)CCCO[C@H]5CC[C@H](OCCNC(=O)[C@H]6CC(=O)N(C)[C@@H]6c6cccnc6)CC5)CC4)CC3)nc3ccc(C(F)(F)F)cc23)C1=O
## Result 5.00

## Task State the recorded pIC50 for this entry: CC(=O)N[C@@H]1C[C@H](NC(C)(C)C)CC[C@@H]1N1CC[C@H](Nc2nc(NCC3CCN(C(=O)[C@H]4CC[C@H](NC(=O)CCCO[C@H]5CC[C@H](OCCNC(=O)[C@H]6CC(=O)N(C)[C@@H]6c6cccnc6)CC5)CC4)CC3)nc3ccc(C(F)(F)F)cc23)C1=O
## Result < 4.95

Kindly consider the entry below.
## Task State the recorded pIC50 for this entry: CC(=O)N[C@@H]1C[C@H](NC(C)(C)C)CC[C@@H]1N1CC[C@H](Nc2nc(CCNC(=O)[C@H]3CC[C@H](NC(=O)CCCO[C@H]4CC[C@H](OCCNC(=O)[C@H]5CC(=O)N(C)[C@@H]5c5cccnc5)CC4)CC3)nc3ccc(C(F)(F)F)cc23)C1=O
## Result < 4.00

Origin of measurements: patent US20250057958A1
